VALUE TYPE: melting point

Sample CCOC(=O)/C=C/c1ccc(OCCOC)cc1OCc1ccc(Cl)cc1Cl — what was its melting point?
101 °C

Now this one: CN(C)C1(Cc2ccccc2)CCC(O)(c2csc3ccccc23)CC1 (stereo not given)
158 to 160 °C

Now this one: C#Cc1cnc2ccc(OC(SC)C(=O)NC(C)(C#C)CO)cc2c1 (stereo not given)
149 to 150 °C

Now this one: CCc1cc(C)c2c(n1)-c1ccccc1C2=O
68 to 70 °C

Now this one: CNS(=O)(=O)CCc1ccc2[nH]cc(C3CCN(C)CC3)c2c1
156 to 158 °C

Now this one: CC(=O)c1ccc2c(c1)Sc1cc(Br)ccc1O2
143 to 145 °C
